# ASSAYED_SYSTEM: human CD22, His-tagged recombinant (human, UniProt P20273)
# Sequence (P20273 20-687): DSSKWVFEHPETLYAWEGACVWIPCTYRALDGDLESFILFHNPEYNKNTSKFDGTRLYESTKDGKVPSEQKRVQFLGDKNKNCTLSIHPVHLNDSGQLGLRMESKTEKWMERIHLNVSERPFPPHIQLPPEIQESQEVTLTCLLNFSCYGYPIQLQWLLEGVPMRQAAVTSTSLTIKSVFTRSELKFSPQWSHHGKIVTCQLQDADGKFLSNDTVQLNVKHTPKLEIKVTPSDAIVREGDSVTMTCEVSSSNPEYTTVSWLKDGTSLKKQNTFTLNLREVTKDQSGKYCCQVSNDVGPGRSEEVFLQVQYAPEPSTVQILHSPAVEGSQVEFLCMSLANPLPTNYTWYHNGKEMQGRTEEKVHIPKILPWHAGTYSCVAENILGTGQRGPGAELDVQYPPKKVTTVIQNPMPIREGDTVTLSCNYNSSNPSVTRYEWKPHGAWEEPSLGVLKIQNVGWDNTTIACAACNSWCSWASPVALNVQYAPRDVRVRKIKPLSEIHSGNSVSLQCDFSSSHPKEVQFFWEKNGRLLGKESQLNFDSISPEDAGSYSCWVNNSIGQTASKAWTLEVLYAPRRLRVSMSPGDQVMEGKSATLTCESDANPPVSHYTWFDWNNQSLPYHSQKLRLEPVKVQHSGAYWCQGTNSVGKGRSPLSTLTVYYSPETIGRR
# TEST: SPR
pKd: −log10 of the molar value.
Measured pKd, listed per entry.
OBSERVATION_TYPE: pKd

INSERT INTO assay_data (binder, experimental_result) VALUES
  ('CD22-mAb-1 (antibody, V domains shown) VH: QVQLVQSGAEVKKPGASVKVSCKASGYTFTGYYIHWVRQAPGQGLEWMGWINPNSGGTNYAQKFQGRVTMTRDTSIGTAYMELSRLRSDDTAIYYCTREDTWNYIDYWGQGTLVTVSS VL: DIQMTQSPSSLSASVGDRVTITCRASQSISSHLNWYQQKPGKAPKLLIYAASSLHSGVPSRFSGSGSGTDFTLTISSLQPEDFATYCCQQSYSTPRTFGQGTKVEIK', 10.42),
  ('CD22-mAb-3 (antibody, V domains shown) VH: QVTLRESGPALVKTTQTLTLTCTFSGFSLSTSGMCVSWIRQPPGKALEWLALIDWDDDKYYSTSLKTRLTISKDTSKSQVVLTMTSMDPVDTATYYCARIRYIYGYDYFDYWGQGTLVTVSS VL: DIQMTQSPSSLSASVGDRVTITCRASQRISSQLNWYQQKPGKAPKLLIYAASSLQSGVPSRFSGSGSGTEFTLTISSLQPEDIATYCCQQTYSKPITFGQGTRLEIK', 8.77),
  ('CD22-mAb-4 (antibody, V domains shown) VH: QVQLVESGGGVVQPGRSLRLSCAASGFTFSSYGMHWVRQAPGKGLEWVAIIYYDGSKKYYADSVKGRFTISRDNSKNTLYLQMNSLRAEDTAVYYCARELTGDAFDIWGQGTKVTVSS VL: EIVLTQSPDFQSVTPKEKVTITCRASQSIGSSLHWYQQKPDQSPKLLIKYASQSFSGVPSKFIGSGSGTDFTLTINSLEAEDAATFYCHQSSTLPYTFGQGTKLEIK', 8.59),
  ('CD22-mAb-2 (antibody, V domains shown) VH: QVTLRESGPALVKPTQTLTLTCTFSGISLTTSGMCVSWIRQPPGKALEWLALIDWDGDNYYSTSLKTRLTISKDTSKNQVVLTMASMDPVDTATYYCARMGYTYGYDAFDIWGQGTMVTVSS VL: EIVLTQSPEFQSVTPTEKVTITCRASQSIGSLLHWYQQKPDQSPKLLIKFASQSLSGVPSRFSGSGSGTDFTLTINSLEAEDAATYYCHQSRSLPFTFGPGTKVDIN', 9.45);
